System: MS2 coat protein
Test: apparent KD of MS2 coat protein; designed switch direction (-1 OFF switch, 1 ON switch): -1; higher = weaker reporter binding
Details: input ligand: FMN 200 uM
Please note: Met applies when apparent KD of MS2 coat protein is 0.06 µM or greater, and Not met applies otherwise.

SEQ_STRING	LABEL_CLASS
CGAUGAGGAGUGAGGAUAUCGUGUUCGAAAGAACGUGAGAAGGCACAUGAGGAUCACCCAUGUGAUCCUUGUCG [Omei Ex4B A9] (Eterna round: R97, puzzle: Brourd's mod of Exclusion 4)	Not met
CACCGUAACAGAGGAUAUGAAACAUGAGGAUCACCCAUGUAAUAAAUGAGAAUUUCGAAUGUACCUCAGAAGGCUGAAACCGGC [Ostricism 82 - Jieux - Exclusion NG 2] (Eterna round: R96, puzzle: Exclusion NG 2)	Not met
GGAUCUUGGGUCAGGAUAUGCUGAUAGUUAUGUCAGCAGAAGGGACAUGAGGAUCACCCAUGUGCUUGGUUUUG [Magic-17] (Eterna round: R96, puzzle: Brourd's mod of Exclusion 4)	Not met
UUUUUAUAUGAAGGAUAUACUUAACAUGAGGAUCACCCAUGUGGUGUUGUGAGUGAGUGAGUUUAGUAGAAGGUCAAUAAUUUU [JMF's solution 9] (Eterna round: R96, puzzle: Exclusion NG 2)	Met
GUGACUGAUGUCAGGAUAUCCGGUGCUAAAGUACAGGAGAAGGGACAUGAGGAUCACCCAUGUAACUUAGCCAG [BmEX4 B.7] (Eterna round: R97, puzzle: Brourd's mod of Exclusion 4)	Not met
ACAUGAGGAUCACCCAUGUCUGGCUGGUCCGUCUCGGCUGUCGAGGAUAUGGCUCGGUGUCCGCGCUAGAAGGCGGGAGCCGGA [Aenatbe mod 77] (Eterna round: R96, puzzle: Exclusion NG 3)	Met
UAAAUGCUGCGAGGAUAUACAUGAGGAUCACCCAUGUGGAUGUCUGAGGCUUUGCCUCAGACGAUGUAGAAGGCGCAGUAAAAU [Mat - Exclusion NG 2 - Mod of JL - D52] (Eterna round: R96, puzzle: Exclusion NG 2)	Met
AUGUGCUGCUAAGGAUAUGUGAACUGUUUCCGAAUAGAAGGUAGCUAUACAUGAGGAUCACCCAUGUACGUGAACCGAGUAAAA [Eternabot solution 20] (Eterna round: R96, puzzle: Exclusion NG 1)	Not met
UACCUGAGGCAAAGCUUUAGGCUUACAUGAGGAUCACCCAUGUAGGAUAUGGUAGGCUUUGCUUACCAGAAGGACAUGGAAAUU [Mat - Exclusion NG 3 - Mod of JL - D22] (Eterna round: R96, puzzle: Exclusion NG 3)	Met

###

Test system: MS2 coat protein
Experiment: apparent KD of MS2 coat protein; designed switch direction (-1 OFF switch, 1 ON switch): -1; higher = weaker reporter binding
Conditions: input ligand: FMN 200 uM
Think of 0.03 µM as a floor: if apparent KD of MS2 coat protein stands on it or above, it is Fulfilled; beneath it, Not fulfilled.

SEQ_STRING	LABEL_CLASS
GGAUAAAAGUCAGGAUAUACGUAUCACUAACGAGUAGAAGGGACACAUGAGGAUCACCCAUGUGAGUUCUCAAUAAGAAACACG [Prohibition 62 - Jieux - Exclusion NG 1] (Eterna round: R96, puzzle: Exclusion NG 1)	Not fulfilled
AUAAUGUGAGGAUAUCAGUCGACUAGCGAUAGCUAGUCGACUGAGAAGGCACAUGAGGAUCACCCAUGUGUUUC [E4/15-A4] (Eterna round: R97, puzzle: Exclusion 4)	Fulfilled
ACAUGAGGAUCACCCAUGUUAACGAAAAGGCUCAUGUAGAGUGAGGAUAUGUGAGACGAACGAGAACAGAAGGCACAAGACAGG [Deportation 2 - Jieux - Exclusion NG 3] (Eterna round: R96, puzzle: Exclusion NG 3)	Not fulfilled
GCAUGCUUUUUGCUCGUUUACAUGAGGAUCACCCAUGUACAUGGGUGAGCCGCAUGUACAGAAAGGAAAACUUUUUG [Alacar Attempt 2] (Eterna round: R97, puzzle: Sensor, turn-off variant 1)	Not fulfilled
UCAGUGUUAGGAUAUCGAGCAAGUUGAAUAUUUGUCUGUAUCGAGAAGGGACAUGAGGAUCACCCAUGUGAGGC [Eternabot (L1) Solution 65] (Eterna round: R97, puzzle: Exclusion 4)	Fulfilled
GAGUGCUGAGGAUAUACAUGAGGAUCACCCAUGUGCUUCAGCUAGGAGACUAGUAUCAGUAGAAGGCAGUACUC [Mod of lroppy 20 - Jieux - Exclusion 3] (Eterna round: R97, puzzle: Exclusion 3)	Fulfilled
CACACGUAAGGAUAUACAACGGAAACGGGCGCGCGGGCCUCACAUGAGGAUCACCCAUGUAGAAGGUGCACGGG [Eternabot (Original) Solution 18] (Eterna round: R97, puzzle: Exclusion 2)	Fulfilled
ACUUAUUGAGGAUAUACAUAAAUUUACAUGAGGAUCACCCAUGUUCUUCUAUGUAUAUAUGUAGAAGGCAGAAGAA [JL-ex5-4.31 Malcolm mod] (Eterna round: R97, puzzle: Exclusion 5)	Not fulfilled
GCUCGUUUUGUCAGGAUAUUGAGUCAGCUUAAGCUCGAGAAGGGACAUGAGGAUCACCCAUGUACCGCACAAUU [BmEX4 B.29] (Eterna round: R97, puzzle: Brourd's mod of Exclusion 4)	Not fulfilled

###

# key: entry, value: apparent KD of MS2 coat protein
Tested on: MS2 coat protein
Test: apparent KD of MS2 coat protein; designed switch direction (-1 OFF switch, 1 ON switch): -1; higher = weaker reporter binding
Conditions: input ligand: none

SEQ_STRING	UNITS_SYMBOL	apparent KD of MS2 coat protein
GCACGGAAAUUCCAUAAAACCACAUGAGGAUCACCCAUGUCUCAGGAUAUGGUCUGGAUUACAGGCCAGAAGGGAGAACCGUGC [Eli exng3 - 059] (Eterna round: R96, puzzle: Exclusion NG 3)	nM	11.8
AGCCUAGCAGGAUAUGCCCGGGAUAACAUGAGGAUCACCCAUGUGACUGAUUGAUGUCUUGCAGAAGGGCUAGGGA [JL-EX5-4.03 ViennaUCT mod] (Eterna round: R97, puzzle: Exclusion 5)	nM	26.1
CAGUACUGAGGAUAUACAUGAGGAUCACCCAUGUGUUCCAGCUAGGAGACUAGCAAAAGUAGAAGGCAGUACUG [salish99_ex3_r3_074] (Eterna round: R96, puzzle: Exclusion 3)	nM	25.1

###

Tested on: K4 kissing-loop RNA reporter;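 note: bound reporter read as fluorescence of individual clusters on recovered sequencing chips by microscopy, with normalized cluster intensities fitted with a binding model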
Assay: apparent KD of K4 kissing-loop reporter; higher = weaker reporter binding
Conditions: Eterna round: R107; input ligand: tryptophan 2.4 mM
Label label 1 when apparent KD of K4 kissing-loop reporter >= 200 nM; otherwise label 0.

SEQ_STRING	LABEL_CLASS
UGAUAGGACAGAAGGAGCGGAGCUGGUCAAAGACCAGCAAUACGUUAAAUAGGAGUGAUGUUCCAGGUAGGUCGCUGUCCUAUCU [ArgBX 28 #SwitchBubble #StaticStem]	label 0
GCAGUCAAUCGACCACGAAAGUGGAUGGAUACCAGCCCGAAACCGGGCCCUUGGCAGCCAGUGAUGUUGGAAGACUGCUUUAAAA [#SwitchBubble 14 #K4Late]	label 1
GGGUGGCAGGCGGCCGCCACUCUGAGGGUCCACAGUGAUGUUGUGGGCGCGUAAGCGUCUUCAUAGAGGACCGGGUUUGUUGUUC [Same State Tryptophan B GF 24]	label 1
AACGGCCAGUCGGCCGCCACUCGAUGCAGUGAUGUUGCUAACUUUCUAAAAGAGUGAUGUUCAUGGAGGACCGGGACUAAUGUAA [#29 K4 Tryptophan B Exclusion]	label 1
GCACUGAAGUGAUGUUUUUGUGCACGUUGAAAGGAUAUCUGCUUGUAGAGAAGGUUCUGUUUGUGCGGAGCGGGCGUUACCGGCA [theeternabot_exclusion_KL_FMN_A_32]	label 1
GCCGUAGAUGGAAGGAGCGUGGUUAAUGUAAGUGAUGUUUACGAGGUUAACAAUUGACCGCCACAGGUAGGUCGCCAUCUACGGC	label 0
AGCAGUGAUGUUGCUCAAUUUACAGGUGAUACCAGAGGUCAGUCUCUCCCUUGGCAGCACUUCAUACGAUGAUGUUUUAUCGGCC [theeternabot_sameState_KL_Theo_A_50]	label 1
AAGAGAUCGAGAAGGAGCGAGAAAGCUAGUACAUAUGUACUAGCAAAGCAGUGAUGUUGCACUCAGGUAGGUCGCUCGAUCUCAA [AK1 SS Arginine B]	label 1
CGAGUGAUGUUCGUUCGUUUAUUUCGUUGACAGGAUAUGCGGAAACGCAGAAGGGUCACCUUUGAGUUAACGGAAUUUACGUUAU [Ex FMN A 27]	label 1
AGAUACUUUAUCGCUAGAGGCAUUGCAGAUACCAGCCUAUCUAGAGGCCCUUGGCAGCUGGAGUGAUGUUUCGGCUUAGCUAAAG [theeternabot_exclusion_KL_Theo_A_32]	label 1
CUGUUUUAGUCGGCCGCCACUGCAAGUGAUGUUUGGAGUAUUAUGCCGUUUCUGUCCAUUGAACCCAGGACCGGGACCGGAUCGU [theeternabot_exclusion_KL_Trp_B_8]	label 0
AAGCAGUCACUCAAAGCCAUCGAAGAUGGUCGAGGACCGGUACGGCCGCCACUCGGAGUGAUGUUCCGAAGACUGCAAAAUAAAA	label 1
CGCGCGCGUUGAGAGGCGCGCGCGAAUGAUACCAGUAUAUAAGAAUACCCUUGGCAGCAUAAGAAAGAUAUAGUGAUGUUGUAUA [SSTheophA.E]	label 0
GGUGACGGCCAGGAGUGAUGUAUAGAAUAGCGAGGACCGGUACGGCCGCCACUCGUGAAGAAAAGGGAGUGAUGUUCCGUAAUGU [Kazoo]	label 0
GUGACGCGGACGGCCGCCACUCCGGUGACCGCUCCGUGCCGCCCUGCGCGAGUGAUGUUCGCCAGGAGGACCGGGUCCGACUUUA [Soesente]	label 0
AACCACUCGUUACAUCACUAUCGAGUGGAACGAGGACCGGUACGGCCGCCACUCGAUUAGAUGCAGUGAUGUUGCAUCUUAGAAU [KL-SSTryp-A (BrourdMod)3 #dotplot2 strengthened]	label 0
GCAGGACGAGGAGGAGGAUGAAUUACUGAAGGAGCGCAUAUUUUUGCAGGUAGGUCGCGGUAAAGAAGUAUAGUGAUGUUAUAUA [SSArgA.L]	label 1
GUGCGGUGGAGGCUACCGCUACUCUGAGAAGGAGCGCAGAAGACUGCAGGUAGGUCGCUUAGAGCUUGCAGUGAUGUUGCAAGUU [KL-SSArg-A18]	label 0
UGACUGGACUGAAGGAGCGCUAAACUCCUAGUGAUGUUAGGAAAACGAGACAAAGUCUCGAGGCAGGUAGGUCGCAGUCUAGUCU [ArgBS 18 #SwitchBubble #StaticStem]	label 0
AACAGCAAUGCGGCCGCCACUUCGAGGUCAGUGAUGUUGACGGAAUUAAAUAAAGAUCCCAAGAGGAGGACCGGGCAGUGCUGUU [whbob_SS_Tryp_B_t25]	label 1
CUGGGUUGACGAAAAGUCAACAAAAGAGAAGGAGCGCACGAAAGUGCAGGUAGGUCGCUCAAUCCAGUGAUGUUGGGUCGUCCAG [#OpenEnded 11 #K4Late]	label 1
